- System Name: T1, recombinant human domain 1-3His6 of the cation-independent mannose-6-phosphate receptor (human, UniProt P11717 41-467)
- T1 construct: Biotinylated (NHS-PEG4-biotin) for BLI; Glycosylated; also called hDom1-3His6; hCI-M6PRD1-D3
- Assay Summary: ELISA on coated antigen (100 ng), anti-VHH-HRP, A450
Experimental Readout: EC50 (read off the curve)

Binder: anti-CI-M6PR VHH 1H11 (VHH, made in E. coli WK6, His-tag purified) VHH: QVQLQESGGGLVQPGGSLRLSCAASGIIFSDNRMDWYRQAPGKQREWVATLASYGWKTYADSVKDRFTISRDNAKNTVNLYMNSLQPEDTAVYYCNSGQYWGQGTQVTVSS
Experimental Readout: EC50 (read off the curve)
Test Result: ~0.4 nM

We next turn to a different binder, shown below.
query: Give the measured EC50 (read off the curve) for anti-CI-M6PR VHH1 (VHH, His6-tagged; made in Pichia pastoris, later also in E. coli WK6) VHH: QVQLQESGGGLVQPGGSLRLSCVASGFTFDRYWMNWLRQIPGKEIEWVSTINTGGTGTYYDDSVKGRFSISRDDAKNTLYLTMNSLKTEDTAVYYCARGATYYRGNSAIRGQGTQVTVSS
result: ~10 nM
